# System: HIV-1-IIIB strain
# experiment-notes: Anti-HIV activity: protection of HIV-infected MT-4 cells from HIV-induced cytopathy (MTT assay)
# recorded-conditions: HIV-1 IIIB, MT-4 cells
SI(IIIB), selection index (CC50/EC50) for assorted compounds

In the examples that follow, each entry is paired with its recorded SI(IIIB), selection index (CC50/EC50).
N#Cc1ccc(Nc2nccc(Nc3c(F)cc(-c4ccnc(Cl)c4Cl)cc3F)n2)cc1
3673
N#Cc1ccc(Nc2nccc(Nc3c(F)cc(-c4ccncc4F)cc3F)n2)cc1
2566

For the record Cc1cc(C#N)cc(C)c1Oc1nc(Nc2ccc(C#N)cc2)nc(N)c1Br [ETR, Etravirine, reference compound] , what value of SI(IIIB), selection index (CC50/EC50) is listed for HIV-1-IIIB strain?
>1159

Entry "N#Cc1ccc(Nc2nccc(Nc3c(F)cc(-c4cncnc4)cc3F)n2)cc1" please
229

Then what about the compound "N#Cc1ccc(Nc2nccc(Nc3c(F)cc(-c4coc5ccccc45)cc3F)n2)cc1" ?
1991

Another compound to check: "N#Cc1ccc(Nc2nccc(Nc3c(F)cc(-c4ccnc(F)c4)cc3F)n2)cc1"
1311

Please do the same for "N#Cc1ccc(Nc2nccc(Nc3c(F)cc(-c4cccs4)cc3F)n2)cc1" as well.
>74,627

Similarly, "N#Cc1ccc(Nc2nccc(Nc3c(F)cc(-c4ccoc4)cc3F)n2)cc1" ?
3291

Check "N#Cc1ccc(Nc2nccc(Nc3c(F)cc(-c4cccnc4)cc3F)n2)cc1" too.
32,698

Try this compound too: "N#Cc1ccc(Nc2nccc(Nc3c(F)cc(-c4ccc(N)cc4)cc3F)n2)cc1"
>32,895

Try "N#Cc1ccc(Nc2nccc(Nc3c(F)cc(-c4ccsc4)cc3F)n2)cc1" next.
14032

Would you kindly repeat that for "Cc1cc(-c2cc(F)c(Nc3ccnc(Nc4ccc(C#N)cc4)n3)c(F)c2)ccn1" ?
777

Also "N#Cc1ccc(Nc2nccc(Nc3c(F)cc(-c4cc(F)nc(F)c4)cc3F)n2)cc1" , if possible.
1966

Cool, now "N#Cc1ccc(Nc2nccc(Nc3c(F)cc(-c4csc5ccccc45)cc3F)n2)cc1"
132

Now this one: "N#Cc1ccc(Nc2nccc(Nc3c(F)cc(-c4ccnc(C#N)c4F)cc3F)n2)cc1"
>142,857

Next compound up: "N#Cc1ccc(Nc2nccc(Nc3c(F)cc(-c4ccnc(Cl)c4)cc3F)n2)cc1"
622

* * *

# Test system: MT-4 cells
# experiment-notes: Cytotoxicity in uninfected MT-4 cells (MTT assay)
# Format: cell-based
# recorded-conditions: Mean ± SD, at least three independent experiments
# Description: The test was performed as follows. […] The toxicity test was performed in parallel with the anti-HIV activity test. […] Moreover, a selection index (SI=[…]) was also calculated. The compound to be tested was dissolved in DMSO or water and diluted gradiently with phosphate-buffered saline solution. […] The HIV-induced cytopathy was monitored daily with a reverse optical microscope. […]
reported-property: CC50 (µM)
Please respond with the number in µM and leave the unit unwritten.

In the examples that follow, each entry is paired with its recorded CC50.
N#Cc1ccc(Nc2nccc(Nc3c(F)cc(-c4cn[nH]c4)cc3F)n2)cc1 [compound 8]
3.1
N#Cc1ccc(Nc2nccc(Nc3c(F)cc(-c4ccncc4F)cc3F)n2)cc1 [compound 15]
3.3
N#Cc1ccc(Nc2nccc(Nc3c(F)cc(-c4cncnc4)cc3F)n2)cc1 [compound 3]
2.7

--- query ---
Which CC50 is listed for N#Cc1ccc(Nc2nccc(Nc3c(F)cc(-c4cc(F)nc(F)c4)cc3F)n2)cc1 [compound 16] ?
11
